switch fluorescence ratio reference
Test system: ATP;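 further: ATP exposure 15 min at 22 °C before imaging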
Test: switch fluorescence ratio, 500 uM ATP over buffer (Cy3 cluster intensity, sum of 5 cycles each) (fold (ratio)); higher = stronger signal-on switching upon ATP binding; sequences stand for … in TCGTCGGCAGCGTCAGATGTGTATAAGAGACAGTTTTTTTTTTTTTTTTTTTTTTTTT…TC
Settings: aptamer strand: ATP DNA aptamer (quencher-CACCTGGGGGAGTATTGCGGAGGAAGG + anchor), 100 nM annealed; ATP concentration: 500 uM
// print number alone

Below: 2 sequences and their reported switch fluorescence ratio.
> print(dat)
   sequence.data               measure.name  observed.measurement
1     ACAGTCTGTT  switch fluorescence ratio                  1.01
2     AAAAACTGAA  switch fluorescence ratio                  1.01

Record "CGTAGACTGC" ; system ATP; switch fluorescence ratio = 1.06

Record "TGTGTTCCAA" ; system ATP; switch fluorescence ratio = 1

Record "AAGAGGGGGA" ; system ATP; switch fluorescence ratio = 0.996

Record "ATAATACCTT" ; system ATP; switch fluorescence ratio = 1.15

Record "TACCGGGGAG" ; system ATP; switch fluorescence ratio = 1.02

Record "CTATAACGTT" ; system ATP; switch fluorescence ratio = 1.01

Record "TCAGGAGGTG" ; system ATP; switch fluorescence ratio = 1.07

---

switch fluorescence ratio reference
Test system: ATP;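 further: ATP exposure 15 min at 22 °C before imaging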
Test: switch fluorescence ratio, 500 uM ATP over buffer (Cy3 cluster intensity, sum of 5 cycles each) (fold (ratio)); higher = stronger signal-on switching upon ATP binding; sequences stand for … in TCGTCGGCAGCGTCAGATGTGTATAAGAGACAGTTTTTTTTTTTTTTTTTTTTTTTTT…TC
Settings: aptamer strand: ATP DNA aptamer (quencher-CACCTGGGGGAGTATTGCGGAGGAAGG + anchor), 100 nM annealed; ATP concentration: 500 uM
// print number alone

Below: 5 sequences and their reported switch fluorescence ratio.
> print(dat)
   sequence.data  observed.measurement
1     TGGCTTTTTT                 0.998
2     TGAGAAGTTG                  1.01
3     GGTATGGCGA                 0.939
4     ATTCTTCCGC                  3.88
5     TCGTACATGA                  1.01

The recorded switch fluorescence ratio for "CAGTTTGGGG" is 0.982

The recorded switch fluorescence ratio for "TGAAGAAGGT" is 1.03

The recorded switch fluorescence ratio for "AGAAGGGGTA" is 1.01

The recorded switch fluorescence ratio for "AACAGCCACA" is 1.11

The recorded switch fluorescence ratio for "TAAATTTGGG" is 0.974

---

switch fluorescence ratio reference
Tested on: ATP;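 further: ATP exposure 15 min at 22 °C before imaging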
Test: switch fluorescence ratio, 500 uM ATP over buffer (Cy3 cluster intensity, sum of 5 cycles each) (fold (ratio)); higher = stronger signal-on switching upon ATP binding; sequences stand for … in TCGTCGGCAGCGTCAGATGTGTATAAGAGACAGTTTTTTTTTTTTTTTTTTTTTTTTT…TC
Conditions: aptamer strand: ATP DNA aptamer (quencher-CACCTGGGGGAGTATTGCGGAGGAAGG + anchor), 100 nM annealed; ATP concentration: 500 uM
// print number alone

Below: 2 sequences and their reported switch fluorescence ratio.
> print(dat)
   sequence.data  observed.measurement
1     AGTGAAAATG                  1.05
2     AATAGGTTTT                  1.02

Record "GACGCGTGTG" ; system ATP; switch fluorescence ratio = 1.03

Record "TATTTTTTAG" ; system ATP; switch fluorescence ratio = 0.96

---

switch fluorescence ratio reference
System: ATP;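 further: ATP exposure 15 min at 22 °C before imaging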
Assay: switch fluorescence ratio, 500 uM ATP over buffer (Cy3 cluster intensity, sum of 5 cycles each) (fold (ratio)); higher = stronger signal-on switching upon ATP binding; sequences stand for … in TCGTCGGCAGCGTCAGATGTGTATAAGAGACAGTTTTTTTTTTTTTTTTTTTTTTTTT…TC
Conditions: aptamer strand: ATP DNA aptamer (quencher-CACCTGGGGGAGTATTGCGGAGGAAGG + anchor), 100 nM annealed; ATP concentration: 500 uM

> print(dat)
   sequence.data               measure.name  observed.measurement
1     GTGGTTATGC  switch fluorescence ratio                  1.02

Record "GCGAAAAAGA" ; system ATP; switch fluorescence ratio = 0.98

---

Tested on: ATP;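 further: ATP exposure 15 min at 22 °C before imaging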
Assay: switch fluorescence ratio, 500 uM ATP over buffer (Cy3 cluster intensity, sum of 5 cycles each) (fold (ratio)); higher = stronger signal-on switching upon ATP binding; sequences stand for … in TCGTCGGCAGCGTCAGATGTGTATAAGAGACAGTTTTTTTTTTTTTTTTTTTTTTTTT…TC
Conditions: aptamer strand: ATP DNA aptamer (quencher-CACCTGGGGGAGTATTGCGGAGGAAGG + anchor), 100 nM annealed; ATP concentration: 500 uM
Measure Name: switch fluorescence ratio

Below: 8 sequences and their reported switch fluorescence ratio.
> print(dat)
   sequence.data  observed.measurement
1     CAGGCTGGTC                 0.992
2     TAGTTTTCGT                 0.982
3     AAAAAAAGCG                 0.979
4     TTGGCACGAT                  1.01
5     TATTACGAGT                  1.02
6     GCACCAAAAG                 0.973
7     CCCGTATGTT                  1.03
8     TATTATATTA                  1.02

The recorded switch fluorescence ratio for "AACAGTGTAG" is 1

The recorded switch fluorescence ratio for "GATCGGGGGC" is 1.06

The recorded switch fluorescence ratio for "CGCGAAGGCT" is 1.04

The recorded switch fluorescence ratio for "TTAGTATCGG" is 0.999

The recorded switch fluorescence ratio for "TTGGGTCAGA" is 0.981

The recorded switch fluorescence ratio for "TACTACTTCT" is 1.02

The recorded switch fluorescence ratio for "CAGCAGATTA" is 1.04

---

Tested on: ATP;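 further: ATP exposure 15 min at 22 °C before imaging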
Assay: switch fluorescence ratio, 500 uM ATP over buffer (Cy3 cluster intensity, sum of 5 cycles each) (fold (ratio)); higher = stronger signal-on switching upon ATP binding; sequences stand for … in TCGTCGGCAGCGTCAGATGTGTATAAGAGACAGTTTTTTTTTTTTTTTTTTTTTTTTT…TC
Details: aptamer strand: ATP DNA aptamer (quencher-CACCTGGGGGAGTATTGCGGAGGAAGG + anchor), 100 nM annealed; ATP concentration: 500 uM
Measure Name: switch fluorescence ratio
// print number alone

> print(dat)
   sequence.data  observed.measurement
1     AGGGGGCATT                  0.98
2     AGGCCCGGGA                 0.997
3     AGTATAGAGT                  1.01

Record "GGTGATGAAA" ; system ATP; switch fluorescence ratio = 0.998

Record "AATTATTCGA" ; system ATP; switch fluorescence ratio = 1.02

---

System: ATP;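 further: ATP exposure 15 min at 22 °C before imaging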
Assay: switch fluorescence ratio, 500 uM ATP over buffer (Cy3 cluster intensity, sum of 5 cycles each) (fold (ratio)); higher = stronger signal-on switching upon ATP binding; sequences stand for … in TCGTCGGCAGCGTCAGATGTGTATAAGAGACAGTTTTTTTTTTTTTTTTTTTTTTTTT…TC
Settings: aptamer strand: ATP DNA aptamer (quencher-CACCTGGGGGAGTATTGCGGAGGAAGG + anchor), 100 nM annealed; ATP concentration: 500 uM
switch fluorescence ratio reference
// print number alone

Below: 2 sequences and their reported switch fluorescence ratio.
> print(dat)
   sequence.data  observed.measurement
1      TAAGTCCTT                  1.01
2     GCCGGGGGTG                  1.04

The recorded switch fluorescence ratio for "AGGCTTGATG" is 0.972

The recorded switch fluorescence ratio for "ATGGGCGGGC" is 1.01

The recorded switch fluorescence ratio for "GGGTGTGAGG" is 0.983

The recorded switch fluorescence ratio for "GATGGTGGTT" is 1.02

The recorded switch fluorescence ratio for "TGGATTTGTC" is 0.99

The recorded switch fluorescence ratio for "CTCATTGGCC" is 0.983

The recorded switch fluorescence ratio for "AGACAGGGGA" is 1.02

The recorded switch fluorescence ratio for "ATGAAAAAAA" is 0.976

---

Test system: ATP;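 further: ATP exposure 15 min at 22 °C before imaging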
Test: switch fluorescence ratio, 500 uM ATP over buffer (Cy3 cluster intensity, sum of 5 cycles each) (fold (ratio)); higher = stronger signal-on switching upon ATP binding; sequences stand for … in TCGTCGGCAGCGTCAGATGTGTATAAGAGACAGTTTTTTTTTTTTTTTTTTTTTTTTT…TC
Details: aptamer strand: ATP DNA aptamer (quencher-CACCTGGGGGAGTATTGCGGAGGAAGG + anchor), 100 nM annealed; ATP concentration: 500 uM
Please enter Yes where switch fluorescence ratio is greater than or equal to 1, and No where it is lower.

Prompt: // inclusive: switch fluorescence ratio at least 1? input: "TTCCGGAAGT"
Response: Yes

Prompt: // inclusive: switch fluorescence ratio at least 1? input: "GTTTTTTGGC"
Response: No

Prompt: // inclusive: switch fluorescence ratio at least 1? input: "CATTCGTCGA"
Response: Yes

Prompt: // inclusive: switch fluorescence ratio at least 1? input: "TGAAGTAGGG"
Response: Yes

Prompt: // inclusive: switch fluorescence ratio at least 1? input: "CCCTAATAGA"
Response: Yes
